experiment: NCI Yeast Anticancer Drug Screen. Data for the rad52 strain (AID 147);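 note: 0% = growth of vehicle-treated control cultures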; settings: S. cerevisiae rad52 mutant growth inhibition; at 1.2 µM; stronger effect = higher value
This is part of a sample that, as a whole, favours compounds with a hit. Of some 79,000 tested, about 15% had one in any assay. The source made the active and inactive calls. Cut-off read from the data, not from the text of the source: active = growth inhibition above about 70%; inactive = the rest.
Attribute Measured: growth inhibition

// known answers, use as guide
O=C1C(=O)c2ccccc2C(O)=C1C(C1=C(O)c2ccccc2C(=O)C1=O)c1ccc(Cl)cc1: 9% (inactive)
CC(=O)OCC(C)Cc1cc2c(cc1Br)OCO2 (centres undefined): -6% (inactive)

Enquiry: Let me know recorded growth inhibition for "COc1cc2cc3c4cc(OC)c(OC)cc4cc[n+]3c(C)c2cc1OC" , thanks.
Return: -21% (inactive)

Enquiry: Give me measured growth inhibition, please, for this compound: "CC(=O)ON=C1C=CC(=C(C#N)c2ccc(Cl)cc2)C=C1"
Return: 1% (inactive)
